The reported numbers originate from PubChem BioAssay AID1159580.

# measurement notes: chemical genetic growth profiling, strain panel (AID 1159580);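 also: tested at 20 µM; growth read once vehicle control cultures reached saturation at 30 °C; 1 = growth at the plate median or of vehicle wells; lower values mean less growth of the strain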
# condition details: S. cerevisiae deletion strains, growth OD, locus YDL101C, strain DUN1, stronger effect = lower value
The whole screen tested about 5,500 compounds, of which about 2,000 (36%) were called active. Another 18% or so got no clear call; they are omitted. This is one part of the list.
observable: normalized growth

Check out these entries, answers already filled in.
molecule | result value
C[N+](C)(C)CCOC(N)=O | 0.986 (inactive)
C=C(C)C1CNC(C(=O)O)C1CC(=O)O (stereo not given) | 1.02 (inactive)
COc1cc2c(cc1OC)C1C(=O)c3c(OC)cc4c(c3OC1CO2)CCC(C)(C)O4 (stereo not given) | 1.03 (inactive)
CC(=O)C1CCC2C3CC(=O)C4=CC(=O)CCC4(C)C3CCC12C (stereo not given) | 0.935 (inactive)
CC1(C)C(C=C(Cl)Cl)C1C(=O)OC(C#N)c1cccc(Oc2ccccc2)c1 (stereo not given) | 0.993 (inactive)
COC(=O)c1sccc1OC(=O)c1c(F)cccc1F | 0.908 (inactive)

Query: Return reported normalized growth. Input molecule: COc1cc(O)c(C(=O)/C=C/c2ccccc2)c(OC)c1
Response: 0.916 (inactive)

Query: Return reported normalized growth. Input molecule: CC(=O)OCC(=O)[C@H]1CCC2C3CCC4=CC(=O)CC[C@]4(C)C3CC[C@@]21C (stereo not given in full)
Response: 0.961 (inactive)

Query: Return reported normalized growth. Input molecule: O=C(Oc1ccc(C(F)(F)F)cc1[N+](=O)[O-])c1c(F)cccc1F
Response: 0.316 (active)

Query: Return reported normalized growth. Input molecule: CC12CCC3C(CCC4=CC(=O)CCC43CO)C1CCC2OC(=O)c1ccccc1 (stereo not given)
Response: 1.01 (inactive)

Query: Return reported normalized growth. Input molecule: COc1ccc2cc([C@H](C)CO)ccc2c1
Response: 0.989 (inactive)
